Listing: pIC50 of selected compounds
Target: Recombinant Human ENPP-2/Autotaxin (Homo sapiens, UniProt Q13822)
Construct: purchased R&D systems 5255-EN
Test: LysoPLD activity measurement (autotaxin enzyme inhibition, choline release, TOOS reagent)
Type: biochemical
Settings: LysoPLD inhibitory activity; substrate 14:0 LysoPC; absorbance at 555 nm
pIC50: −log10 of the molar value.
metric_name: pIC50

INSERT INTO measurements (compound, tested_system, metric_name, test_result) VALUES
  ('COC1CCN(C(=O)c2ccc(-n3c(=O)n(Cc4cccc(C(=O)O)c4)c4ccc(Cl)cc43)cc2)C1 (stereo not drawn)', 'Recombinant Human ENPP-2/Autotaxin (Homo sapiens, UniProt Q13822)', 'pIC50', '7.00 to 8.00'),
  ('CC(C)(F)Cc1ccc(-n2c(=O)n(C3(c4cccc(C(=O)O)c4)CC3)c3ccc(Cl)cc32)cc1', 'Recombinant Human ENPP-2/Autotaxin (Homo sapiens, UniProt Q13822)', 'pIC50', '7.00 to 8.00'),
  ('O=C(O)c1cccc(C2(n3c(=O)n(-c4ccc(S(=O)(=O)NCC5CCC5)cc4)c4cc(Cl)ccc43)CC2)c1', 'Recombinant Human ENPP-2/Autotaxin (Homo sapiens, UniProt Q13822)', 'pIC50', '7.00 to 8.00'),
  ('O=C(O)c1cccc(C2(n3c(=O)n(-c4ccc(N5CCOCC5)cc4)c4cc(Cl)cnc43)CC2)c1F', 'Recombinant Human ENPP-2/Autotaxin (Homo sapiens, UniProt Q13822)', 'pIC50', '7.00 to 8.00'),
  ('O=C(O)c1cccc(Cn2c(=O)n(-c3ccc(-c4ccc(Cl)cc4)cc3)c3cc(Cl)ccc32)c1', 'Recombinant Human ENPP-2/Autotaxin (Homo sapiens, UniProt Q13822)', 'pIC50', '6.00 to 7.00'),
  ('C[C@H]1CN(C(=O)Cc2ccc(-n3c(=O)n(C4(c5cccc(C(=O)O)c5)CC4)c4ccc(Cl)cc43)cc2)CCO1', 'Recombinant Human ENPP-2/Autotaxin (Homo sapiens, UniProt Q13822)', 'pIC50', '7.00 to 8.00'),
  ('O=C(O)c1cccc(Cn2c(=O)n(-c3ccc(N4CCN(C(=O)C5CCC5)CC4)cc3)c3cc(Cl)ccc32)c1F', 'Recombinant Human ENPP-2/Autotaxin (Homo sapiens, UniProt Q13822)', 'pIC50', '7.00 to 8.00'),
  ('O=C(O)c1cc(F)cc(Cn2c(=O)n(-c3ccccc3)c3cc(Cl)ccc32)c1', 'Recombinant Human ENPP-2/Autotaxin (Homo sapiens, UniProt Q13822)', 'pIC50', '6.00 to 7.00'),
  ('O=C(O)c1cccc(C2(n3c(=O)n(-c4ccc(CC(=O)N5CCCC5)cc4)c4cc(Cl)ccc43)CC2)c1', 'Recombinant Human ENPP-2/Autotaxin (Homo sapiens, UniProt Q13822)', 'pIC50', '> 8.00'),
  ('O=C(O)c1cccc(Cn2c(=O)n(-c3ccc(C(=O)N4CCCCC4)cc3)c3cc(Cl)ccc32)c1F', 'Recombinant Human ENPP-2/Autotaxin (Homo sapiens, UniProt Q13822)', 'pIC50', '> 8.00'),
  ('CC1(C)OCc2cc(-n3c(=O)n(C4(c5cccc(C(=O)O)c5F)CC4)c4ccc(Cl)cc43)ccc21', 'Recombinant Human ENPP-2/Autotaxin (Homo sapiens, UniProt Q13822)', 'pIC50', '7.00 to 8.00'),
  ('O=C(O)c1cccc(Cn2c(=O)n(-c3ccc(N4CCN(C(=O)C5CC5)CC4)cc3)c3cc(Cl)ccc32)c1', 'Recombinant Human ENPP-2/Autotaxin (Homo sapiens, UniProt Q13822)', 'pIC50', '7.00 to 8.00'),
  ('O=C(O)c1cccc(C2(n3c(=O)n(-c4ccc(C(=O)N5CC6(CCOCC6)C5)cc4)c4cc(Cl)ccc43)CC2)c1F', 'Recombinant Human ENPP-2/Autotaxin (Homo sapiens, UniProt Q13822)', 'pIC50', '> 8.00'),
  ('O=C(O)c1cccc(Cn2c(=O)n(-c3ccc(C(=O)O)cc3F)c3cc(Cl)ccc32)c1', 'Recombinant Human ENPP-2/Autotaxin (Homo sapiens, UniProt Q13822)', 'pIC50', '6.00 to 7.00'),
  ('CC1(C)CC=C(c2ccc(-n3c(=O)n(Cc4cccc(C(=O)O)c4F)c4ccc(Cl)cc43)cc2)CC1', 'Recombinant Human ENPP-2/Autotaxin (Homo sapiens, UniProt Q13822)', 'pIC50', '6.00 to 7.00');

----------
Target: Recombinant Human ENPP-2/Autotaxin (Homo sapiens, UniProt Q13822)
Experiment: LysoPLD activity measurement (autotaxin enzyme inhibition, choline release, TOOS reagent)
Settings: LysoPLD inhibitory activity; substrate 14:0 LysoPC; absorbance at 555 nm
pIC50: −log10 of the molar value.
Listing: pIC50 of selected molecules
metric_name: pIC50

INSERT INTO measurements (molecule, test_result) VALUES
  ('O=C(O)c1cccc(C2(n3c(=O)n(-c4nc5ccccc5s4)c4cc(Cl)ccc43)CC2)c1F [Example 144]', '7.00 to 8.00'),
  ('O=C(O)c1cccc(Cn2c(=O)n(-c3ccc(C(=O)N4CCC(O)CC4)cc3)c3cc(Cl)ccc32)c1 [Example 61]', '> 8.00'),
  ('O=C(O)c1cccc(C2(n3c(=O)n(-c4ccc(C(=O)N5CCCC5)cc4)c4cc(Cl)cnc43)CC2)c1F [Example 231]', '> 8.00'),
  ('O=C(O)c1cccc(C2(n3c(=O)n(-c4ccc(CC(=O)N5CC(O)C5)cc4)c4cc(Cl)ccc43)CC2)c1 [Example 174]', '> 8.00'),
  ('O=C(O)c1cc(F)cc(C2(n3c(=O)n(-c4ccc(N5CC6(COC6)C5)cc4)c4cc(Cl)ccc43)CC2)c1 [Example 191]', '> 8.00'),
  ('CCCc1ccc(-n2c(=O)n(Cc3cccc(C(=O)O)c3)c3ccc(Cl)cc32)cc1 [Example 2]', '6.00 to 7.00'),
  ('O=C(O)c1cccc(C2(n3c(=O)n(-c4ccc(C5(O)COC5)cc4)c4cc(Cl)ccc43)CC2)c1 [Example 258]', '> 8.00');

----------
Target: Recombinant Human ENPP-2/Autotaxin (Homo sapiens, UniProt Q13822)
Experiment: LysoPLD activity measurement (autotaxin enzyme inhibition, choline release, TOOS reagent)
Details: LysoPLD inhibitory activity; substrate 14:0 LysoPC; absorbance at 555 nm
metric_name: IC50

INSERT INTO assay_data (compound, test_result) VALUES
  ('O=C(O)c1cccc(C2(n3c(=O)n(-c4ccc(CN5CCCC5=O)cc4)c4cc(Cl)ccc43)CC2)c1 [Example 236]', '< 10 nM'),
  ('O=C(O)c1cccc(Cn2c(=O)n(-c3ccc(C(F)(F)F)cc3)c3cc(Cl)ccc32)c1 [Example 4]', '100 to 1000 nM'),
  ('CN(C)C(=O)Cc1ccc(-n2c(=O)n(C3(c4cccc(C(=O)O)c4)CC3)c3ccc(Cl)cc32)cc1 [Example 139]', '< 10 nM'),
  ('CN(C)c1ccc(-n2c(=O)n(C3(c4cccc(C(=O)O)c4F)CC3)c3ccc(Cl)cc32)cc1 [Example 70]', '< 10 nM');

----------
Listing: IC50 of selected compounds
Target: Recombinant Human ENPP-2/Autotaxin (Homo sapiens, UniProt Q13822)
Experiment: LysoPLD activity measurement (autotaxin enzyme inhibition, choline release, TOOS reagent)
Conditions: LysoPLD inhibitory activity; substrate 14:0 LysoPC; absorbance at 555 nm
metric_name: IC50

INSERT INTO assay_data (compound, tested_system, metric_name, test_result) VALUES
  ('O=C(O)c1cccc(C2(n3c(=O)n(-c4ccc(N5CC6CCC(C5)O6)cc4)c4cc(Cl)ccc43)CC2)c1', 'Recombinant Human ENPP-2/Autotaxin (Homo sapiens, UniProt Q13822)', 'IC50', '< 10 nM'),
  ('O=C(O)c1cccc(C2(n3c(=O)n(-c4ccc(N5CC6CC5CO6)cc4)c4cc(Cl)ccc43)CC2)c1 (stereo not shown)', 'Recombinant Human ENPP-2/Autotaxin (Homo sapiens, UniProt Q13822)', 'IC50', '< 10 nM'),
  ('O=C(O)c1cccc(C2(n3c(=O)n(-c4ccc(C5CCCCC5)cc4)c4cc(Cl)ccc43)CC2)c1', 'Recombinant Human ENPP-2/Autotaxin (Homo sapiens, UniProt Q13822)', 'IC50', '100 to 1000 nM'),
  ('O=C(O)c1cccc(Cn2c(=O)n(-c3ccc(N4CCOCC4)cc3)c3cc(Cl)ccc32)c1', 'Recombinant Human ENPP-2/Autotaxin (Homo sapiens, UniProt Q13822)', 'IC50', '10 to 100 nM');

----------
Molecular target: Recombinant Human ENPP-2/Autotaxin (Homo sapiens, UniProt Q13822)
Test: LysoPLD activity measurement (autotaxin enzyme inhibition, choline release, TOOS reagent)
Details: LysoPLD inhibitory activity; substrate 14:0 LysoPC; absorbance at 555 nm
pIC50: −log10 of the molar value.
Listing: pIC50 of selected molecules
metric_name: pIC50

INSERT INTO results (molecule, tested_system, test_result) VALUES
  ('CCC(=O)N1CCC(c2ccc(-n3c(=O)n(C4(c5cccc(C(=O)O)c5)CC4)c4ccc(Cl)cc43)cc2)CC1 [Example 234]', 'Recombinant Human ENPP-2/Autotaxin (Homo sapiens, UniProt Q13822)', '> 8.00'),
  ('CN(C)C(=O)c1ccc(-n2c(=O)n(C3(c4cccc(C(=O)O)c4)CC3)c3ncc(Cl)cc32)cc1 [Example 223]', 'Recombinant Human ENPP-2/Autotaxin (Homo sapiens, UniProt Q13822)', '> 8.00'),
  ('O=C(O)c1cccc(C2(n3c(=O)n(-c4ccc(C5=CCOC5)cc4)c4cc(Cl)ccc43)CC2)c1F [Example 123]', 'Recombinant Human ENPP-2/Autotaxin (Homo sapiens, UniProt Q13822)', '> 8.00'),
  ('CC(C)(c1cccc(C(=O)O)c1)n1c(=O)n(-c2ccc(C3CCOCC3)cc2)c2cc(Cl)ccc21 [Example 158]', 'Recombinant Human ENPP-2/Autotaxin (Homo sapiens, UniProt Q13822)', '7.00 to 8.00');

Sourced from patent US20260265265A1
